- Tested on: Nucleic Acid
- TEST_DESCRIPTION: Change in thermal denaturation temperature determined from calf thymus DNA after incubation at 37 degree celsius for 4 hours
- Type: functional
- CONDITION_SET: Bos taurus
I'd appreciate it if you could supply ΔTm values for the items below.
Give just the number in °C; leave the unit off.

Which ΔTm value belongs to COc1cc2c(cc1OCc1ccccc1)N=C[C@@H]1CCCN1C2=O ?
0.4

Which ΔTm value belongs to C=C1C[C@H]2C=Nc3cc(OC)c(OC)cc3C(=O)N2C1 ?
1.95

Which ΔTm value belongs to C/C=C1/C[C@H]2C=Nc3cc(OCc4ccccc4)c(OC)cc3C(=O)N2C1 ?
1.65

Which ΔTm value belongs to C=C1C[C@H]2C=Nc3cc(OCc4ccccc4)c(OC)cc3C(=O)N2C1 ?
1.22

Which ΔTm value belongs to COc1cc2c(cc1OC)C(=O)N1CCC[C@H]1C=N2 ?
0.43

Which ΔTm value belongs to C/C=C1/C[C@H]2C=Nc3cc(OC)c(OC)cc3C(=O)N2C1 ?
1.47
